Multi-source literature compilation: IC50 on Somatostatin receptor type 4 (Homo sapiens).
Sequence (P31391 whole entry): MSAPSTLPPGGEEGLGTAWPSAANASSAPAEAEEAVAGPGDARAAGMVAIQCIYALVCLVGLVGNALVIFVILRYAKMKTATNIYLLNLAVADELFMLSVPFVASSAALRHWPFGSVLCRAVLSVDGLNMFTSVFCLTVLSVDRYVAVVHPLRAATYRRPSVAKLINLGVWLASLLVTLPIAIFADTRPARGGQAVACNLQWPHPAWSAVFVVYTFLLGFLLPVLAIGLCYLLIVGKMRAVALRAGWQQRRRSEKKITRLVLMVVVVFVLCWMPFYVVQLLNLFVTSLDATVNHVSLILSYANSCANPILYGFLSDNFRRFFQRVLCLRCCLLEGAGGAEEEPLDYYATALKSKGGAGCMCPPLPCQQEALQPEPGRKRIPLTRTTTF
Give bare numbers, in nM.

Reference set, count: 2
- test smiles: "C[C@@H](O)[C@@H]1NC(=O)[C@@H](N(C)C(=O)CCN)NC(=O)[C@@H](Cc2c[nH]c3ccccc23)NC(=O)[C@H](Cc2ccccc2)NC(=O)[C@H](Cc2ccccc2)NC(=O)[C@@H](N)CSSC[C@@H](C(=O)O)NC(=O)[C@H](Cc2ccccc2)NC1=O"
  unit string: "nM"
  obs value: 429
- test smiles: "C[C@@H](O)[C@@H]1NC(=O)[C@H](CCCCN)NC(=O)[C@@H]([C@@H](C)c2ccc3ccccc3c2)NC(=O)[C@H](Cc2ccc(N)cc2)NC(=O)[C@H](Cc2ccccc2)NC(=O)[C@H](NC(=O)[C@@H](N)Cc2ccc(O)cc2)CSSC[C@@H](C(=O)O)NC(=O)[C@H](Cc2ccccc2)NC1=O"
  unit string: "nM"
  obs value: 9.8

Consider the additional compound presented here.
Task: Query (compound): `CC(C)[C@@H]1NC(=O)[C@H](CCCCN)NC(=O)[C@@H](Cc2c[nH]c3ccccc23)NC(=O)[C@H](Cc2ccc(O)cc2)NC(=O)[C@H](NC(=O)[C@H](N)Cc2ccccc2)C(C)(C)SSC[C@@H](C(=O)N[C@H](C(N)=O)[C@@H](C)O)NC1=O` ; field requested: IC50
Output: 1000
